IC50 (neutralization) overview
biological target: HIV-1 Env of isolate MGRM-D-005 (subtype D) (HIV-1); test: cell-based or functional assay
Readout Type: IC50 (neutralization)

[[record]]
binder = "PGT-127 (antibody, V domains shown) VH: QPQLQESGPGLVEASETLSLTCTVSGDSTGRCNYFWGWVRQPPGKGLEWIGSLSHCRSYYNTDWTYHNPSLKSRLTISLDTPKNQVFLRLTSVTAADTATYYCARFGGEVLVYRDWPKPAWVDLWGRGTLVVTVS VL: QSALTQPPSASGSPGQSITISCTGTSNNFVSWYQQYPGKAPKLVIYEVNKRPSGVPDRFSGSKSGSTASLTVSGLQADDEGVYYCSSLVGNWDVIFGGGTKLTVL"
readout_type = "IC50 (neutralization)"
result = "6.04 µg/mL"

[[record]]
binder = "PGT-125 (antibody, V domains shown) VH: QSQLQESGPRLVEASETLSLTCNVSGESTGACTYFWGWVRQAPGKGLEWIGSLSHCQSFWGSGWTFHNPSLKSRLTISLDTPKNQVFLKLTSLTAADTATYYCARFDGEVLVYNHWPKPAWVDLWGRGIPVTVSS VL: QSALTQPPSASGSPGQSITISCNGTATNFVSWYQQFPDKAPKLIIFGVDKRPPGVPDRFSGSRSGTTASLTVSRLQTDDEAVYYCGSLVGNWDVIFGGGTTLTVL"
readout_type = "IC50 (neutralization)"
result = "> 50 µg/mL"

[[record]]
binder = "PGT-130 (antibody, V domains shown) VH: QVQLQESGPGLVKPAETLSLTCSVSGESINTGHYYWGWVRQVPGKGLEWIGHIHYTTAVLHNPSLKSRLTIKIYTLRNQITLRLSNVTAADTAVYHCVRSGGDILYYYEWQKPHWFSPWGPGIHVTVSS VL: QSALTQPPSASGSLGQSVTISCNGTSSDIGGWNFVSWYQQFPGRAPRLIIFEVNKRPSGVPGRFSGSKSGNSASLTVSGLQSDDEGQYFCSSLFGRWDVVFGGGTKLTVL"
readout_type = "IC50 (neutralization)"
result = "> 50 µg/mL"

